Origin of measurements: patent US11078222B2

- System: rat liver mitochondria (RLM)
- Assay details: Mitochondrial transmembrane electric potential (safranine fluorescence)
- Format: biochemical
- Experimental parameters: Glutamate/Malate, 5 μM
Readout: ADP-induced depolarization (ΔΨ in - mV)

[
  {
    "Compound": "O=C(NCCCCCC[P+](c1ccccc1)(c1ccccc1)c1ccccc1)c1cc(O)c(O)c(O)c1.[Br-] [AntiOxBEN2]",
    "ADP-induced depolarization (ΔΨ in - mV)": "194.9 ± 15.6 - mV"
  },
  {
    "Compound": "COC1=C(OC)C(=O)C(CCCCCCCCCC[P+](c2ccccc2)(c2ccccc2)c2ccccc2)=C(C)C1=O.CS(=O)(=O)[O-] [MitoQ, reference compound]",
    "ADP-induced depolarization (ΔΨ in - mV)": "173.5 ± 8.9 - mV"
  },
  {
    "Compound": "O=C(NCCCCCC[P+](c1ccccc1)(c1ccccc1)c1ccccc1)c1ccc(O)c(O)c1.[Br-] [AntiOxBEN1]",
    "ADP-induced depolarization (ΔΨ in - mV)": "209.4 ± 20.3 - mV"
  }
]

Continue with the next compound.
Task item: For the compound shown here, O=C(CCCCC[P+](c1ccccc1)(c1ccccc1)c1ccccc1)NCCCCCCNC(=O)c1cc(O)c(O)c(O)c1.[Br-] [AntiOxBEN3] , give the reported ADP-induced depolarization (ΔΨ in - mV).
Reply: 204.5 ± 21.6 - mV
